Reference source: patent US11377425B1

- tested on: human IL-17AA (Homo sapiens)
- Sequence (Q16552 24-155): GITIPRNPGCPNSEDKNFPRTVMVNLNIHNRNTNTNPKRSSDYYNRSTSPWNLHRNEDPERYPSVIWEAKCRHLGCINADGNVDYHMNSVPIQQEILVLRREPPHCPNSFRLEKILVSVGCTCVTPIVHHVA
- assay summary: IL-8 release assay in human epithelial keratinocytes adult (HEKa)
- protocol conditions: HEKa cells, 3 ng/mL HEK-human IL-17AA + 10 ng/mL human TNFalpha; read-out: Rel EC50 IL-8 release assay
quantity: EC50

>  <compound>
Cc1n[nH]c(C)c1-c1ccc(NC(=O)[C@@H](NC(=O)c2ccnn2C)C2CC23CCC3)cc1 (single isomer, unassigned)

>  <tested on>
human IL-17AA (Homo sapiens)

>  <EC50>
> 1000 nM

$$$$
>  <compound>
CNc1[nH]nc(C)c1-c1ccc(NC(=O)[C@@H](NC(=O)c2ccnn2C)C2CCCCC2)cc1

>  <tested on>
human IL-17AA (Homo sapiens)

>  <EC50>
> 1000 nM

$$$$
>  <compound>
Cc1n[nH]c(C)c1-c1ccc(NC(=O)[C@@H](NC(=O)c2ccnn2C(F)F)C2CCCCC2)cc1

>  <tested on>
human IL-17AA (Homo sapiens)

>  <EC50>
100 to 1000 nM

$$$$
>  <compound>
Cc1n[nH]c(C)c1-c1ccc(NC(=O)[C@@H](NC(=O)c2ccnn2C)C2CCC(C)(C)CC2)cc1

>  <tested on>
human IL-17AA (Homo sapiens)

>  <EC50>
100 to 1000 nM

$$$$
>  <compound>
Cc1n[nH]c(C)c1-c1ccc(NC(=O)[C@H](CC2CCCCC2)NC(=O)c2ccnn2C(C)C)cc1

>  <tested on>
human IL-17AA (Homo sapiens)

>  <EC50>
100 to 1000 nM

$$$$
>  <compound>
Cc1n[nH]c(C)c1-c1ccc(NC(=O)C(NC(=O)c2ccnn2C(C)C)C(C2CC2)C2CC2)cc1 (racemic) [Example 31]

>  <tested on>
human IL-17AA (Homo sapiens)

>  <EC50>
< 100 nM

$$$$

Now take the following compound into account.
Request the reported EC50 associated with `Cc1n[nH]c(C)c1-c1ccc(NC(=O)[C@H](Cc2ccccc2Cl)NC(=O)c2ccnn2C)cc1` > 1000 nM
